# IC50 annotations
System: SKMEL3 melanoma cells (B-Raf V600E)
assay method text: SKMEL3 cell growth inhibition (ATPlite)
Assay type: cell-based
experimental parameters: Homo sapiens, SK-MEL3, 72 h; SKMEL3, 3 days incubation

Here's what some known entries look like.
{"molecule": "COc1ncc(-c2cnc3[nH]cc(C(=O)c4c(F)ccc(NS(=O)(=O)c5ccccc5F)c4F)c3c2)cn1 [P-2041]", "outcome measure": "IC50", "reported measurement": "< 1000 nM"}
{"molecule": "COc1ncc(-c2cnc3[nH]cc(C(=O)c4c(F)ccc(NS(=O)(=O)c5cccc(F)c5)c4F)c3c2)cn1 [P-2045]", "outcome measure": "IC50", "reported measurement": "< 5000 nM"}
{"molecule": "CCCS(=O)(=O)Nc1ccc(F)c(C(=O)c2c[nH]c3ncc(-c4cnc(N(C)C)nc4)cc23)c1F [P-2196]", "outcome measure": "IC50", "reported measurement": "< 1000 nM"}
{"molecule": "COc1ncc(-c2cnc3[nH]cc(C(=O)c4c(F)ccc(NS(=O)(=O)c5cc(F)ccc5F)c4F)c3c2)cn1 [P-2042]", "outcome measure": "IC50", "reported measurement": "< 1000 nM"}

Let us move to another entry and its IC50.
*Q* Item CCCS(=O)(=O)Nc1ccc(F)c(C(=O)c2c[nH]c3ncc(-c4cnc(N5CCCC5)nc4)cc23)c1F [P-2219] has what recorded IC50?
*A* < 5000 nM

----------
system: B-Raf V600E (Homo sapiens, UniProt P15056, V600E)
Sequence (P15056 whole entry V600E): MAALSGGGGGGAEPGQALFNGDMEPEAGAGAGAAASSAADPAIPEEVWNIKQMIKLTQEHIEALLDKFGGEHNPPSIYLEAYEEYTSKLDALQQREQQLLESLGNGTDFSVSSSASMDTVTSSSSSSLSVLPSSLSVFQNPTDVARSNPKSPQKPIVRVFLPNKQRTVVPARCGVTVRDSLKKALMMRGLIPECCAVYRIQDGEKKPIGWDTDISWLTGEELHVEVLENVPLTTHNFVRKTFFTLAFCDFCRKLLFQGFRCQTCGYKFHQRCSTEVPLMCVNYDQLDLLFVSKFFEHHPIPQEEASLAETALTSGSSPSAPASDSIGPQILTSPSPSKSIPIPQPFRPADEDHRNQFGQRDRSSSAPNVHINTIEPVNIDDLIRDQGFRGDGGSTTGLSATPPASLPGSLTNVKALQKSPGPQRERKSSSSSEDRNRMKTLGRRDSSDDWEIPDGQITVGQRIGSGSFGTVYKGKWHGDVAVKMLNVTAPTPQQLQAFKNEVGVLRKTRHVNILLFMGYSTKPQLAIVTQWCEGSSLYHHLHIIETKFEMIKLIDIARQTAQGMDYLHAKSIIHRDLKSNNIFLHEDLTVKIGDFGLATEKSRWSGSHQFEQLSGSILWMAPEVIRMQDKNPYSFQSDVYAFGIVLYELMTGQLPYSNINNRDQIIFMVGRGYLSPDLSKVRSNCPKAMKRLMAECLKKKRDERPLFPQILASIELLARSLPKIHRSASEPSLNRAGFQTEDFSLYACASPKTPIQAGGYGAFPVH
assay method text: B-Raf V600E biochemical kinase inhibition (AlphaScreen, biotin-MEK1 substrate)
experimental parameters: 100 μM ATP
outcome measure: IC50

{"compound": "COc1ccnc2[nH]cc(C(=O)c3c(F)ccc(NS(=O)(=O)c4ccccc4F)c3F)c12 [P-2021]", "IC50": "< 100 nM"}

*Q* Item O=C(c1c(F)ccc(NS(=O)(=O)c2ccccc2F)c1F)c1c[nH]c2nccc(Cl)c12 [P-2017] has what recorded IC50?
*A* < 10 nM

*Q* Then this compound: O=C(c1c(F)ccc(NS(=O)(=O)c2cc(F)ccc2F)c1F)c1c[nH]c2ncc(Cl)cc12 [P-2002]
*A* < 10 nM

*Q* Then this compound: CCCS(=O)(=O)Nc1ccc(F)c(C(=O)c2c[nH]c3ncc(-c4ccc(S(=O)(=O)N5CCOCC5)cc4)cc23)c1F [P-2166]
*A* < 10 nM

----------
system: CYP3A4(BFC) (Homo sapiens, UniProt P08684)
Sequence (P08684 whole entry): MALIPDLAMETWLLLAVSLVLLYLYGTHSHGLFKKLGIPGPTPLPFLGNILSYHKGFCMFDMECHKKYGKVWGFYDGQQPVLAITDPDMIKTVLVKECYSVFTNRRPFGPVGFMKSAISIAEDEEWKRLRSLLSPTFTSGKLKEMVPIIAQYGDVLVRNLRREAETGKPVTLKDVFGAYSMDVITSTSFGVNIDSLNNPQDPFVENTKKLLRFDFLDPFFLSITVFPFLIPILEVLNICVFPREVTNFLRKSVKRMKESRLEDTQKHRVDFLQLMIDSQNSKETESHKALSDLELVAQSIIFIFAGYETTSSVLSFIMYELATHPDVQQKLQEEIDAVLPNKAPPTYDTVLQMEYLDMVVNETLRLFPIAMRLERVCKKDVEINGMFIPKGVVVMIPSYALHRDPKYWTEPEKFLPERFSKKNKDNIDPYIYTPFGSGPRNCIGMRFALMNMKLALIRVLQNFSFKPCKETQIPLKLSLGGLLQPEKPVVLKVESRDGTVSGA
assay method text: CYP3A4(BFC) inhibition (fluorescent substrate)
Assay type: in vitro ADME
experimental parameters: read-out: Cyp IC50 3A4(BFC)
# IC50 annotations

Here's what some known entries look like.
{"compound": "CCCS(=O)(=O)Nc1ccc(F)c(C(=O)c2c[nH]c3ncc(-c4ccc(OCCCN5CCCC5)nc4)cc23)c1F [P-2235]", "IC50": "> 10 µM"}
{"compound": "CCCS(=O)(=O)Nc1ccc(F)c(C(=O)c2c[nH]c3ncc(-c4ccc(OC)nc4OC)cc23)c1F [P-2184]", "IC50": "> 10 µM"}
{"compound": "O=C(c1c(F)ccc(NS(=O)(=O)c2ccccc2F)c1F)c1c[nH]c2nccc(Cl)c12 [P-2017]", "IC50": "> 10 µM"}

*Q* Item CCCS(=O)(=O)Nc1ccc(F)c(C(=O)c2c[nH]c3ncc(-c4cncnc4)cc23)c1F [P-2162] has what recorded IC50?
*A* 5 to 10 µM

*Q* Then this compound: CCCS(=O)(=O)Nc1ccc(F)c(C(=O)c2c[nH]c3ncc(-c4cn[nH]c4)cc23)c1F [P-2174]
*A* > 10 µM

*Q* Then this compound: O=C(c1c(F)ccc(NS(=O)(=O)c2c(F)cccc2F)c1F)c1c[nH]c2nccc(Cl)c12 [P-2033]
*A* > 10 µM

Data origin: patent US8198273B2
